Source: ChEMBL document CHEMBL1154229

# Test protocol: Bioavailability in rat at 1 mg/kg, iv and 2 mg/kg, po
# Assay type: ADME, organism-based
# Measurement parameters: in vivo
Reported endpoint: bioavailability (%)

{"columns": ["Molecule", "bioavailability / %"],
 "data": [
  ["NC(=O)CCC1(c2ccccc2)CCCN(C(=O)Nc2ccc(Cl)cc2)C1 (stereo not given)", 13]
]}

P. CC1(c2ccccc2)CCCN(C(=O)Nc2ccc(Cl)cc2)C1 (stereo not given)
Q. CN(C)CCC1(c2ccccc2)CCCN(C(=O)Nc2ccc(Cl)cc2)C1 (stereo not given)
R. O=C(Nc1ccc(Cl)cc1)N1CCCC(CCc2nn[nH]n2)(c2ccccc2)C1 (stereo not given)
S. O=C(O)CCC1(c2ccccc2)CCCN(C(=O)Nc2ccc(Cl)cc2)C1 (stereo in doubt; 2b)
Task: Order the records by bioavailability, with each subsequent value no larger than the one before. Please express your ranking as an ordered list of the labels.
Result: S, Q, P, R
(S: 84%, Q: 52%, P: 13%, R: 0.17%)

====

# Assayed target: Bifunctional epoxide hydrolase 2 (Rattus norvegicus, UniProt P80299)
# Sequence (P80299 whole entry): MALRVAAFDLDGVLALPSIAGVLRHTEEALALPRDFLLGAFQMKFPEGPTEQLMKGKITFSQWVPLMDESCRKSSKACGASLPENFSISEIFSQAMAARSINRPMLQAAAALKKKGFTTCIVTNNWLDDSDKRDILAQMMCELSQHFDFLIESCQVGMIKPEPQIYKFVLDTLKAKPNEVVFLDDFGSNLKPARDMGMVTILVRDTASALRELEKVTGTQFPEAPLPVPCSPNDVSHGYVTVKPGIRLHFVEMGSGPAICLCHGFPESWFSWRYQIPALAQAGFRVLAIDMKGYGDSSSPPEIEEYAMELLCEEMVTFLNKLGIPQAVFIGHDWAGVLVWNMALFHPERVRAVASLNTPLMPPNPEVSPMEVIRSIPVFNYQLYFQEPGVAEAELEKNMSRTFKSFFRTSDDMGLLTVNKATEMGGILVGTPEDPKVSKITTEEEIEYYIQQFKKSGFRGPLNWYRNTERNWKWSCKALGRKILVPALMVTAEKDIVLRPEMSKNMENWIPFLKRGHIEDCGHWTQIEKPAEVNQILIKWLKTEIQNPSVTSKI
# Test protocol: Inhibition of rat soluble epoxide hydrolase
pIC50: −log10 of the molar value.
Reported endpoint: pIC50

P. CC1(c2ccccc2)CCCN(C(=O)Nc2noc3ccccc23)C1 (stereo not given)
Q. N#CCCC1(c2ccccc2)CCCN(C(=O)Nc2ccc(Cl)cc2)C1 (stereo not given)
R. O=C(O)CCC1(c2ccccc2)CCCN(C(=O)Nc2ccc(Cl)cc2)C1 (stereo in doubt; 2b)
S. O=C(Nc1ccc(Cl)cc1)N1CCCC(CCCO)(c2ccccc2)C1 (stereo not given)
Task: Ascending sort, pIC50. Please express your ranking as an ordered list of the labels.
Result: P, R, Q, S

====

# Assayed target: Bifunctional epoxide hydrolase 2 (Homo sapiens, UniProt P34913)
# Test protocol: Inhibition of human soluble epoxide hydrolase in HEK293 cells assessed as DHET production
# Format: cell-based
pIC50: −log10 of the molar value.
Reported endpoint: pIC50

Record excerpt, results attached:
{"columns": ["Compound", "pIC50"],
 "data": [
  ["CC1(c2ccccc2)CCCN(C(=O)NCc2ccc(-c3ccc4[nH]ccc4c3)cc2)C1 (stereo unspecified)", 8.52],
  ["CN(C)CCC1(c2ccccc2)CCCN(C(=O)Nc2ccc(Cl)cc2)C1 (stereo unspecified)", 8.89],
  ["CC1(c2ccccc2)CCCN(C(=O)NCCc2ccc3nccnc3c2)C1 (stereo unspecified)", 8.52]
]}

Task: Could you share which pIC50 value was measured for O=C(O)CCC1(c2ccc(-c3ccccc3)cc2)CCCN(C(=O)Nc2ccc(OC(F)(F)F)cc2)C1 (stereo unspecified) ?
Result: > 9.00

Task: Could you share which pIC50 value was measured for CNC(=O)CCC1(c2ccccc2)CCCN(C(=O)Nc2ccc(Cl)cc2)C1 (stereo unspecified) ?
Result: > 9.00

Task: Could you share which pIC50 value was measured for O=C(O)CCC1(c2ccccc2C(F)(F)F)CCCN(C(=O)Nc2ccc(Cl)cc2)C1 (stereo unspecified) ?
Result: > 9.00

Task: Could you share which pIC50 value was measured for O=C(Nc1ccc(Cl)cc1)N1CCCC(CCc2nn[nH]n2)(c2ccccc2)C1 (stereo unspecified) ?
Result: > 9.00

Task: Could you share which pIC50 value was measured for CC1(c2ccccc2)CCCN(C(=O)NCCc2ccc3nc[nH]c3c2)C1 (stereo unspecified) ?
Result: 7.89

Task: Could you share which pIC50 value was measured for O=C(O)CCCC1(c2ccccc2)CCCN(C(=O)Nc2ccc(Cl)cc2)C1 (stereo unspecified) ?
Result: 8.22

Task: Could you share which pIC50 value was measured for CC1(c2ccccc2)CCCN(C(=O)N[C@H]2C[C@@H]2c2ccccc2)C1 (stereo partly specified) ?
Result: > 9.00

Task: Could you share which pIC50 value was measured for O=C(Nc1ccc(Cl)cc1)N1CCCC(CCO)(c2ccccc2)C1 (stereo unspecified) ?
Result: > 9.00

Task: Could you share which pIC50 value was measured for O=C(O)CC1(c2ccccc2)CCCN(C(=O)Nc2ccc(Cl)cc2)C1 (stereo unspecified) ?
Result: 7.42

====

Quick record of IC50 values for Cytochrome P450 2C9 (Homo sapiens).

Task: Reported IC50 for Cytochrome P450 2C9 (Homo sapiens), given O=C(O)CCC1(c2ccccc2)CCCN(C(=O)Nc2ccc(Cl)cc2)C1 (stereo in doubt; 2b) ?
Result: > 10 µM

Task: Reported IC50 for Cytochrome P450 2C9 (Homo sapiens), given CC1(c2ccccc2)CCCN(C(=O)Nc2ccc(-c3ccccc3)cc2)C1 (stereo not given) ?
Result: < 10 µM

Task: Reported IC50 for Cytochrome P450 2C9 (Homo sapiens), given CC1(c2ccccc2)CCCN(C(=O)NCc2ccc(-c3ccccc3C(F)(F)F)cc2)C1 (stereo not given) ?
Result: < 10 µM

Task: Reported IC50 for Cytochrome P450 2C9 (Homo sapiens), given O=C(CCC1(c2ccccc2)CCCN(C(=O)Nc2ccc(Cl)cc2)C1)Nc1nn[nH]n1 (stereo not given) ?
Result: > 10 µM

Task: Reported IC50 for Cytochrome P450 2C9 (Homo sapiens), given CC1(c2ccccc2)CCCN(C(=O)NCCCc2cccnc2)C1 (stereo not given) ?
Result: > 10 µM

====

# Assayed target: Bifunctional epoxide hydrolase 2 (Homo sapiens)
# Sequence (P34913 whole entry): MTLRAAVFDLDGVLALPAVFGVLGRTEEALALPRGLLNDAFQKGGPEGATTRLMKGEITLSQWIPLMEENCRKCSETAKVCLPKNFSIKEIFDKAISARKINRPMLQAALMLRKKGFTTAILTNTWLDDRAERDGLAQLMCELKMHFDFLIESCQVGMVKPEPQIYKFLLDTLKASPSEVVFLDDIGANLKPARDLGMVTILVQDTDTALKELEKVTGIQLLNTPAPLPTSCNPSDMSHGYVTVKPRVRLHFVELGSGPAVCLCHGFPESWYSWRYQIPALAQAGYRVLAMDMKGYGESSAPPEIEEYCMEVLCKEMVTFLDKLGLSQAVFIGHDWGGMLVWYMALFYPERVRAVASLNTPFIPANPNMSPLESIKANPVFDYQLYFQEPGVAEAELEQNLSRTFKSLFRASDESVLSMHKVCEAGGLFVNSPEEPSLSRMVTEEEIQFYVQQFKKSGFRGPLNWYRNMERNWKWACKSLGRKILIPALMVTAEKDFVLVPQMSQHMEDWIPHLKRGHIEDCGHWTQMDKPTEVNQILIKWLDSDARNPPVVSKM
# Test protocol: Inhibition of human soluble epoxide hydrolase
Reported endpoint: IC50 (nM)

{"columns": ["Compound", "IC50 [nM]"],
 "data": [
  ["CC1(c2ccccc2)CCCN(C(=O)Nc2ccc(Cl)cc2)C1 (stereo not given)", 1]
]}

P. O=C(O)CCCCC1(c2ccccc2)CCCN(C(=O)Nc2ccc(Cl)cc2)C1 (stereo not given)
Q. CC1(c2ccccc2)CCCN(C(=O)NCCc2ccc3nc[nH]c3c2)C1 (stereo not given)
R. O=C(CCC1(c2ccccc2)CCCN(C(=O)Nc2ccc(Cl)cc2)C1)Nc1nn[nH]n1 (stereo not given)
Task: Order the records by IC50, with each subsequent value no larger than the one before. Please express your ranking as an ordered list of the labels.
Result: Q, P, R

====

# Assayed target: L-type calcium channel
# Test protocol: Inhibition of calcium channel diltiazem binding site
pIC50: −log10 of the molar value.
Reported endpoint: pIC50

{"columns": ["Compound", "Result"],
 "data": [
  ["N#CCCC1(c2ccccc2)CCCN(C(=O)Nc2ccc(Cl)cc2)C1 (stereo unspecified)", 5.15],
  ["CN(C)CCC1(c2ccccc2)CCCN(C(=O)Nc2ccc(Cl)cc2)C1 (stereo unspecified)", 7.00]
]}

1. CC1(c2ccccc2)CCCN(C(=O)NCc2ccc(-c3ccccn3)cc2)C1 (stereo unspecified)
2. CC1(c2ccccc2)CCCN(C(=O)NCCc2ccc(Cl)cc2)C1 (stereo unspecified)
3. O=C(CCC1(c2ccccc2)CCCN(C(=O)Nc2ccc(Cl)cc2)C1)N1CCOCC1 (stereo unspecified)
4. O=C(Nc1ccc(Cl)cc1)N1CCCC(CCO)(c2ccccc2)C1 (stereo unspecified)
Task: Your job: order these 4 records by pIC50, ascending. Please express your ranking as an ordered list of the labels.
Result: 3, 2, 4, 1
(3: 4.59, 2: 5.70, 4: 6.05, 1: 6.30)

A. CC1(c2ccccc2)CCCN(C(=O)Nc2ccc(Cl)cc2)C1 (stereo unspecified)
B. CC1(c2ccccc2)CCCN(C(=O)NCc2ccc(-c3ccccc3C(F)(F)F)cc2)C1 (stereo unspecified)
Task: Given the two records A and B , choose the one whose pIC50 value is lower. Write down the label attached to your selection.
Result: A
(A: 5.77, B: 6.15)

I. CC1(c2ccccc2)CCCN(C(=O)NCc2ccc(Cl)cc2Cl)C1 (stereo unspecified)
II. CCN(CC)C(=O)CCC1(c2ccccc2)CCCN(C(=O)Nc2ccc(Cl)cc2)C1 (stereo unspecified)
III. CC1(c2ccccc2)CCCN(C(=O)N[C@H]2C[C@@H]2c2ccccc2)C1 (stereo partly specified)
IV. O=C(Nc1ccc(Cl)cc1)N1CCCC(CCCO)(c2ccccc2)C1 (stereo unspecified)
Task: Order the records by pIC50, with each subsequent value no larger than the one before. Please express your ranking as an ordered list of the labels.
Result: II, I, IV, III
(II: 6.00, I: 5.70, IV: 5.30, III: 5.00)
